# Tested on: primary human hepatic stellate cells (donor 1)
# Procedure Summary: scaled lipid accumulation score (0 = DMSO-like, 1 = nortriptyline-like); higher = stronger HSC inactivation (lipid re-accumulation), active = hit call of the paper
# Condition Summary: library stock concentration: 2 mM; 48 h
Out of some 5,800 compounds screened, about 620 (11%) showed activity. The sample as a whole holds a higher share of actives than the screen did.
Please provide measured scaled lipid accumulation score for the entries that follow.

// for each compound in input: emit scaled lipid accumulation score
1. COc1cc2ncnc(Nc3ccc(F)c(Cl)c3)c2cc1OCCCN1CCOCC1 [Gefitinib (ZD1839, Iressa) (2 mM)]
2. COc1cc2c(Oc3ccc(NC(=O)C4(C(=O)Nc5ccc(F)cc5)CC4)cc3F)ccnc2cc1OCCCN1CCOCC1
3. OCCCNc1cc(-c2ccnc(Nc3cccc(Cl)c3)n2)ccn1
4. O=C(c1cncc(Br)c1)N1CCC(N2CCCC2)CC1
5. CCN1CCC(n2cc(CNc3cc(Cl)c4ncc(C#N)c(Nc5ccc(F)c(Cl)c5)c4c3)nn2)CC1
6. Cn1cc(-c2ccc(F)c(C(F)(F)F)c2)nc1C1CCN(c2ncnc3[nH]ncc23)CC1
7. O=C(c1ccc(C(=O)N2CCC(N3CCCC3)CC2)c(Nc2ccccc2)c1)N1CCC(N2CCCC2)CC1
8. CCN1CCN(c2ccc(Nc3cc(N(C)C(=O)Nc4c(Cl)c(OC)cc(OC)c4Cl)ncn3)cc2)CC1

result:
["0.864 (active)", "0.834 (inactive)", "0.587 (inactive)", "≤ 0 (inactive)", "≤ -0.009 (inactive)", "0.054 (inactive)", "≤ 0 (inactive)", "0.01 (inactive)"]

// for each compound in input: emit scaled lipid accumulation score
1. CCN1CCN(Cc2ccc(NC(=O)c3ccc(C)c(/C=C/c4cnc5[nH]ccc5c4OC)c3)cc2C(F)(F)F)CC1
2. CC[C@@H]1C(=O)N(C)c2cnc(Nc3ccc(C(=O)N[C@H]4CC[C@H](N5CCN(CC6CC6)CC5)CC4)cc3OC)nc2N1C(C)C [Volasertib]
3. Cc1cc(Nc2nc(N[C@@H](C)c3ccc(F)cc3)c(C#N)cc2F)n[nH]1
4. CNC(=O)c1ccccc1Nc1nc(Nc2ccc(N3CCOCC3)cc2OC)ncc1Cl
5. N#CC(c1ccnc(NCCc2cccnc2)n1)c1nc2ccccc2s1 (stereo not drawn)

result:
1. 0.888 (active)
2. 0.451 (inactive)
3. ≤ -0.005 (inactive)
4. ≤ -0.016 (inactive)
5. 0.058 (inactive)
